B1: POU domain, class 2, transcription factor 1, residues 285 to 354; numbered along this chain, P14859 (parent)
chain: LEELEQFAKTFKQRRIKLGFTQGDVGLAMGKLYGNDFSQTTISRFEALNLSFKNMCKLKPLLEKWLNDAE

Variants of: B1
Assay: abundance fitness (aPCA) (normalised: wild type 0, dead -1); higher = more abundant; growth selection in yeast, the domain comes from the species named
Conditions: Homo sapiens
Kindly state abundance fitness for each of the entries shown.
One number for each entry.

G34P | 0

Lab note: each variant below needs its abundance fitness filled in.
1. G30F
2. L62M
3. F52K
4. E5K
5. F11C
6. W65H
7. K53R
8. F45W

Return:
1: 0.014; 2: -0.006; 3: -0.024; 4: -0.017; 5: -0.11; 6: -0.5; 7: 0.015; 8: -0.247

Enquiry: Need abundance fitness of F20P , thanks.
Return: -0.827

The values you see were collected from the Human Domainome abundance scans (Beltran et al. 2025).
